Taken from ChEMBL document CHEMBL3774347.

molecular target: Lysine-specific demethylase 4C (Homo sapiens, UniProt Q9H3R0); assay: Inhibition of N-terminal His6-tagged KDM4C (1 to 352 residues) (unknown origin) expressed in Escherichia coli Rosetta 2(DE3)pLysS using ARTKQTARK(Me3)STGGKA peptide/100 uM alpha-ketoglutarate as substrate/cofactor incubated for 45 mins by MALDI assay
Sequence (Q9H3R0 whole entry, the tested form may be a part): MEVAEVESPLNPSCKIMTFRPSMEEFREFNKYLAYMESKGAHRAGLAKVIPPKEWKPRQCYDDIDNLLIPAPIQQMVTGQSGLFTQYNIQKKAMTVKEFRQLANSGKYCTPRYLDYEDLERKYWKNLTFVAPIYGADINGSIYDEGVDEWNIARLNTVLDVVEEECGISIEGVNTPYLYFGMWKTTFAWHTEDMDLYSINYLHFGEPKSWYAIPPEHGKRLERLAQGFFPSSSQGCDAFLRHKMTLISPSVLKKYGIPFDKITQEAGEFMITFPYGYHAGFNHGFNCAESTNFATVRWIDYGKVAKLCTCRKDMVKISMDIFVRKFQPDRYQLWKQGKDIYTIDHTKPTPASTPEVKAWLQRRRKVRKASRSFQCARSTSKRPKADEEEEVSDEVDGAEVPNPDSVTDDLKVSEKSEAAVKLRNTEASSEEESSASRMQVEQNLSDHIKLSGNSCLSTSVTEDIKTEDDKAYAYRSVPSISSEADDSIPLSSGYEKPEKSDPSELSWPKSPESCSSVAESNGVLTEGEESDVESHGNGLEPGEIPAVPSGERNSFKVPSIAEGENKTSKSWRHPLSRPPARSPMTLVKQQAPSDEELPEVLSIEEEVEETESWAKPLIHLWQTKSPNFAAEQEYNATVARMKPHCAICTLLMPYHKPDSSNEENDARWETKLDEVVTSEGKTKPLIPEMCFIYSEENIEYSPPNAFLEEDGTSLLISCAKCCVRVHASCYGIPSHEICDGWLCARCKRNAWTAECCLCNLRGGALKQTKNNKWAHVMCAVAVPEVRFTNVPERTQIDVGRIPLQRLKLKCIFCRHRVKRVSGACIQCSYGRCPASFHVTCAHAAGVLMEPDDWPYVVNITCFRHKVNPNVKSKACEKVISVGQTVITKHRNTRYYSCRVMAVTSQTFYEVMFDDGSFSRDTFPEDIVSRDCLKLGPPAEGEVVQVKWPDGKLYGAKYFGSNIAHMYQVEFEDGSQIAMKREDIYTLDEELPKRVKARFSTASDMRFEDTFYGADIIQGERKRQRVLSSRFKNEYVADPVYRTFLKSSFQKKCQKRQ
Checkbox rule: IC50 lower than 50 µM = YES; IC50 not lower than 50 µM = NO.

Previously resolved entries follow.
• O=C(O)c1ccnc(-c2cc(NC(=O)c3ccc(O)cc3)ccc2O)c1 = YES
• COc1cccc(CC(=O)Nc2ccc(O)c(-c3cc(C(=O)O)ccn3)c2)c1 = YES
• COCC(=O)Nc1ccc(O)c(-c2cc(C(=O)O)ccn2)c1 = YES

Hello, I'm reviewing records and need to know if IC50 of Cc1cc(C(=O)Nc2ccc(O)c(-c3cc(C(=O)O)ccn3)c2)no1 is below 50 µM. Could you check? YES

Would you kindly repeat that for CC(=O)Nc1ccc(O)c(-c2cc(C(=O)O)ccn2)c1 ? NO

###

target: UniProtKB O15054
Sequence (O15054 whole entry): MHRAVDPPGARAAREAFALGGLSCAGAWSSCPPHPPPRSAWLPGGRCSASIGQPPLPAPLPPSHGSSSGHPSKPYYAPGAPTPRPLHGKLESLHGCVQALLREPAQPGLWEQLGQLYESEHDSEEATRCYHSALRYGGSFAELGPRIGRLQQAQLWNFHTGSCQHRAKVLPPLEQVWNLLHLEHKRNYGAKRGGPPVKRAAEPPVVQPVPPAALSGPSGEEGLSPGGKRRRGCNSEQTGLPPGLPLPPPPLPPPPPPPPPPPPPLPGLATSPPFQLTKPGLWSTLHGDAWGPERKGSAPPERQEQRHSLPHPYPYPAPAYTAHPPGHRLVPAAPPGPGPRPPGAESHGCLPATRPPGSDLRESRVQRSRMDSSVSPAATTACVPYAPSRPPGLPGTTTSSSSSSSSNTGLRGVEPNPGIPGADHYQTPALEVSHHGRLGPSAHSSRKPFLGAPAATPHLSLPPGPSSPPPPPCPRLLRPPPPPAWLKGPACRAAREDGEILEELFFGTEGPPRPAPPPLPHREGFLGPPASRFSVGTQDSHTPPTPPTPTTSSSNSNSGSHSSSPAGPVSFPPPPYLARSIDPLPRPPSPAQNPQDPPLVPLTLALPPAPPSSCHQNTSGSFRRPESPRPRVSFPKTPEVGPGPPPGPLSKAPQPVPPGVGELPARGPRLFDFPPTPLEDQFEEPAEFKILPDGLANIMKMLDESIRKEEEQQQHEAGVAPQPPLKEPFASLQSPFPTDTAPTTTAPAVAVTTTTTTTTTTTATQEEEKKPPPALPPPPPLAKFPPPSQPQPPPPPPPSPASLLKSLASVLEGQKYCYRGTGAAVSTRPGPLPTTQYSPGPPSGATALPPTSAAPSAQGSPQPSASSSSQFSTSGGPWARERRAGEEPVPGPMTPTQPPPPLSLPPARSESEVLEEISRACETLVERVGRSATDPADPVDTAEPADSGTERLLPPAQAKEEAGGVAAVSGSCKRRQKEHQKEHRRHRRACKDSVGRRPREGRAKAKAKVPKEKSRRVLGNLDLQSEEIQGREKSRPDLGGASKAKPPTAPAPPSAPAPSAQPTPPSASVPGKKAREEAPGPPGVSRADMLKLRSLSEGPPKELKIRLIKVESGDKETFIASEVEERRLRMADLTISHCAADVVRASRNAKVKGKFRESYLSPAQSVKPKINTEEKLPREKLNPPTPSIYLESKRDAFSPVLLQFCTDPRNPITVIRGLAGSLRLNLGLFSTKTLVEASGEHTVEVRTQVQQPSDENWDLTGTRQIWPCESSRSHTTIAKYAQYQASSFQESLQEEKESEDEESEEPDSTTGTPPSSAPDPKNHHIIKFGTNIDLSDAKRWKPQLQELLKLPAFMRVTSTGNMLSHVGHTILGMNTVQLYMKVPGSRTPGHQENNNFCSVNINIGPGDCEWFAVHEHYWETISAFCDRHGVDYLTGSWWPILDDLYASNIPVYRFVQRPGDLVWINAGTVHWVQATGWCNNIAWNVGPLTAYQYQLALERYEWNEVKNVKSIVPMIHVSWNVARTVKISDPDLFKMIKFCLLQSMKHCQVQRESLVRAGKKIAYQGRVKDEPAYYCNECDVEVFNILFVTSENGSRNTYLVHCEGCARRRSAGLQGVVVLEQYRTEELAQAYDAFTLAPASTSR
Measured IC50 values are reported for all entries that follow.
Write it as a number; the unit µM goes unstated.

Query for UniProtKB O15054: what IC50 does the record show for COc1cccc(CC(=O)Nc2ccc(O)c(-c3cc(C(=O)O)ccn3)c2)c1 ? 16

Would you kindly repeat that for O=C(O)c1ccnc(-c2cc(NC(=O)c3ccc(O)cc3)ccc2O)c1 ? 27

Would you kindly repeat that for Cc1cc(C(=O)Nc2ccc(O)c(-c3cc(C(=O)O)ccn3)c2)no1 ? 31

###

Here's what we have: IC50 numbers for Lysine-specific demethylase 5A (Homo sapiens, UniProt P29375).
Write it as a number; the unit µM goes unstated.

Observe how each entry below is paired with its result.
* COCC(=O)Nc1ccc(O)c(-c2cc(C(=O)O)ccn2)c1 | 180
* Cc1cc(C(=O)Nc2ccc(O)c(-c3cc(C(=O)O)ccn3)c2)no1 | 23
* O=C(O)c1ccnc(-c2cc(NC(=O)c3ccc(O)cc3)ccc2O)c1 | 45
* COc1cccc(CC(=O)Nc2ccc(O)c(-c3cc(C(=O)O)ccn3)c2)c1 | 52

Which IC50 value belongs to CC(=O)Nc1ccc(O)c(-c2cc(C(=O)O)ccn2)c1 ? 240

###

Measured log10 IC50 values are reported for all entries that follow.
target: Lysine-specific demethylase 4C (Homo sapiens); assay: Inhibition of N-terminal His6-tagged KDM4C (1 to 352 residues) (unknown origin) expressed in Escherichia coli Rosetta 2(DE3)pLysS using biotinylated histone H3 (1 to 21 residues) lysine 9 trimethylated peptide/2 uM alpha-ketoglutarate as substrate/cofactor measured after 45 mins by TR-FRET assay; conditions: read-out: IC50
Reminder: these figures are log10 of reported IC50, in µM before transformation.

Observe how each entry below is paired with its result.
- Cn1nccc1CNc1ccc(O)c(C(=O)O)c1: 1.76
- Nc1ccc(O)c(-c2cc(C(=O)O)ccn2)c1: 0.92
- O=C(Cc1cccc(Br)c1)Nc1ccc(O)c(-c2cc(C(=O)O)ccn2)c1: -0.77
- O=C(O)Cn1nnnc1COc1ccccc1: 3.37
- Cc1cc(O)c2c(CC(=O)O)cc(=O)oc2c1: 2.25
- COc1ccc(CC(=O)Nc2ccc(O)c(-c3cc(C(=O)O)ccn3)c2)cc1: -1.16

As a next step, examine the molecule that follows.
Query for Lysine-specific demethylase 4C (Homo sapiens): what log10 IC50 does the record show for O=C(O)[C@@H]1CC(=O)N(c2nccs2)C1 ? 2.83

###

Measured pIC50 values are reported for all entries that follow.
target: Lysine-specific demethylase 4C (Homo sapiens, UniProt Q9H3R0); assay: Inhibition of N-terminal His6-tagged KDM4C (1 to 352 residues) (unknown origin) expressed in Escherichia coli Rosetta 2(DE3)pLysS using biotinylated histone H3 (1 to 21 residues) lysine 9 trimethylated peptide/2 uM alpha-ketoglutarate as substrate/cofactor measured after 45 mins by TR-FRET assay; conditions: read-out: IC50
Answer as the number alone; pIC50 is minus log10 of concentration in mol/L.

- CC(=O)Nc1ccc(O)c(-c2cc(C(=O)O)ccn2)c1: 5.92

Which pIC50 value belongs to O=C(O)c1ccnc(-c2cc(NCc3cccc4c3OCO4)ccc2O)c1 ? 6.25

Would you kindly repeat that for O=C(O)c1ccnc(-c2cc(NC(=O)c3cccc(O)c3)ccc2O)c1 ? 6.34

Would you kindly repeat that for CCNC(=S)Nc1ccc(O)c(C(=O)O)c1 ? 3.78

Would you kindly repeat that for N#Cc1ccc(O)c(-c2cc(C(=O)O)ccn2)c1 ? 5.22

Would you kindly repeat that for O=C(O)c1ccnc(-c2cc(NC(=O)c3ccccc3O)ccc2O)c1 ? 5.34
